Assay: refractive index (Na D-line) (dimensionless)
Conditions: 308.15 K; Liquid; Standard Abbe refractometry
property: refractive index

INSERT INTO measurements (smiles_input, reported_value) VALUES
  ('Cc1cc(C)cc(C)c1', 1.4918),
  ('Cc1ccc(C)cc1', 1.4881),
  ('Cc1ccccc1', 1.4884),
  ('c1ccccc1', 1.4918),
  ('Cc1cccc(C)c1', 1.4896),
  ('C1COCCO1', 1.4161),
  ('Cc1ccccc1C', 1.4975);

* * *

Conditions: 308.15 K; Liquid; Pycnometric method
property: mass density (kg/m3)

INSERT INTO assay_data (smiles_input, endpoint_unit, reported_value) VALUES
  ('c1ccccc1', 'kg/m3', 862.9),
  ('Cc1ccccc1', 'kg/m3', 852.93),
  ('Cc1ccc(C)cc1', 'kg/m3', 848.12),
  ('Cc1cc(C)cc(C)c1', 'kg/m3', 853.63),
  ('Cc1cccc(C)c1', 'kg/m3', 851.45),
  ('C1COCCO1', 'kg/m3', 1016.68),
  ('Cc1ccccc1C', 'kg/m3', 867.05);

* * *

Test: refractive index (Na D-line) (dimensionless)
Conditions: 298.15 K; Liquid; Standard Abbe refractometry
# Lookup of reported refractive index keyed by entry
property: refractive index

INSERT INTO assay_data (smiles_input, property, reported_value) VALUES
  ('Cc1cc(C)cc(C)c1', 'refractive index', 1.4969),
  ('Cc1ccccc1C', 'refractive index', 1.5029),
  ('Cc1ccccc1', 'refractive index', 1.4942),
  ('C1COCCO1', 'refractive index', 1.4203),
  ('Cc1ccc(C)cc1', 'refractive index', 1.4933),
  ('c1ccccc1', 'refractive index', 1.498),
  ('Cc1cccc(C)c1', 'refractive index', 1.4948);

* * *

Settings: 318.15 K; Liquid; Pycnometric method
property: mass density (kg/m3)

INSERT INTO assay_data (molecule, endpoint_unit, reported_value) VALUES
  ('Cc1ccccc1 [toluene]', 'kg/m3', 843.49),
  ('c1ccccc1 [benzene]', 'kg/m3', 852.23),
  ('Cc1ccccc1C [1,2-dimethylbenzene]', 'kg/m3', 858.53),
  ('Cc1cccc(C)c1 [1,3-dimethylbenzene]', 'kg/m3', 842.88),
  ('Cc1ccc(C)cc1 [1,4-dimethylbenzene]', 'kg/m3', 839.42);

* * *

Test: refractive index (Na D-line) (dimensionless)
Details: 313.15 K; Liquid; Standard Abbe refractometry
property: refractive index

INSERT INTO assay_data (smiles_input, property, reported_value) VALUES
  ('Cc1cc(C)cc(C)c1', 'refractive index', 1.4893),
  ('c1ccccc1', 'refractive index', 1.4887),
  ('Cc1ccc(C)cc1', 'refractive index', 1.4855),
  ('Cc1ccccc1C', 'refractive index', 1.4948);

All values here come from the NIST ThermoML archive (doi:10.1021/je800579j).
